experiment: Drug concentration in mouse fat tissue at 25 mg/kg, po after 8 hrs; assay type: ADME, organism-based; design: dose 25 mg/kg, route oral; conditions: fat tissue (adipose tissue), read-out: Drug uptake
measured metric: concentration at 8 h (µM)
Entry rule: numbers only, all in µM.

**Query** Record request: concentration at 8 h value, item CCS(=O)(=O)c1ccc(CC(=O)Nc2nc(-c3cccc(Cl)c3)c(C(=O)c3ccccc3Cl)s2)cc1
**Result** 10

* * *

target: Nuclear receptor subfamily 1 group I member 2 (Homo sapiens); assay: Agonist activity at human pregnane X receptor expressed in HEK293 cells by luciferase reporter gene assay
Sequence (O75469 whole entry): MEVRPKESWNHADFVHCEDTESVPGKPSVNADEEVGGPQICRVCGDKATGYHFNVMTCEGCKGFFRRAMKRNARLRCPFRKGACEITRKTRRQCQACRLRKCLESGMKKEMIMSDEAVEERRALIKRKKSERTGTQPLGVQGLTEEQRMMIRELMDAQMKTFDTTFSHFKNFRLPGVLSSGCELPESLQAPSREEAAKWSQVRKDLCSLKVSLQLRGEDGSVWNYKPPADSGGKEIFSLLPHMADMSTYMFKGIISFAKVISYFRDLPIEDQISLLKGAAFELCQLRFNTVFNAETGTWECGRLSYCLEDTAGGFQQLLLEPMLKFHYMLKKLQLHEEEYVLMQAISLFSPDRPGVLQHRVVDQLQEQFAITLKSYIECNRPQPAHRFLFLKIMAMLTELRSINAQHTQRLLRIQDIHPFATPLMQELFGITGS
measured metric: pEC50
# reply with the number alone; pEC50 is -log10 of concentration in mol/L

**Query** Give the reported pEC50 for CCS(=O)(=O)c1ccc(CC(=O)Nc2nc(-c3cccc(Cl)c3)c(C(=O)c3ccccc3Cl)s2)cc1 (system: Nuclear receptor subfamily 1 group I member 2 (Homo sapiens)).
**Result** 6.59
